target: IRAK4 (Homo sapiens); construct: endogenous in cells; host or cells: Karpas299; experiment: IRAK4 Degradation Assay (Karpas299, HTRF/TR-FRET); format: cell-based; conditions: Karpas-299 cells, 24 h treatment; read-out: IRAK4 in Karpas-299 (24 h) DC50
Sequence (Q9NWZ3 whole entry): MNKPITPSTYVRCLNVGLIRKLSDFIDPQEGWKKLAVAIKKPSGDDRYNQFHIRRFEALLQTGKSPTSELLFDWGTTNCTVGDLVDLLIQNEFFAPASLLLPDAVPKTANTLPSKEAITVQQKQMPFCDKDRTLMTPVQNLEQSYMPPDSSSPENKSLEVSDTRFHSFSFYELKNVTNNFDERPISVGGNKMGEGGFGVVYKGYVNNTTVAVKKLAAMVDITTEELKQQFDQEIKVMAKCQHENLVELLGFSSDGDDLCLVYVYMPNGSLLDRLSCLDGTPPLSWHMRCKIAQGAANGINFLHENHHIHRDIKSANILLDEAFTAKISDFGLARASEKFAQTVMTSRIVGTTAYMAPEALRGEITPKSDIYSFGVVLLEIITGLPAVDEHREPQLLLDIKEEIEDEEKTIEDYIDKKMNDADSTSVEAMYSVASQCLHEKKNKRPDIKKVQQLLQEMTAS
endpoint-name: DC50 (nM)

{"test-smiles": "COc1cc(N2CC[C@@H](C(=O)N3CCN([C@H]4CC[C@H](n5cc6cc(NC(=O)c7ccc8cc(C#N)cnn78)c(C(C)(C)O)cc6n5)CC4)CC3)C2)cc(F)c1N1CCC(=O)NC1=O", "value-units": "nM", "observed-value": 3.6}
{"test-smiles": "CC(C)c1cc(-c2nc(C(=O)Nc3cn([C@H]4CC[C@H](N5CCN(C(=O)C6CN(c7cc(F)c([C@H]8CCC(=O)NC8=O)c(F)c7)C6)CC5)CC4)nc3C(F)F)co2)ccn1", "value-units": "nM", "observed-value": 8.9}
{"test-smiles": "COc1cc2nn(C3CCN(C4CN(C(=O)[C@@H]5CCN(c6cc(F)c([C@H]7CCC(=O)NC7=O)c(F)c6)C5)C4)CC3)cc2cc1NC(=O)c1cccc(C(F)(F)F)n1", "value-units": "nM", "observed-value": 2.2}
{"test-smiles": "O=C1CC[C@H](c2c(F)cc(N3CC(CN4CCN([C@H]5CC[C@H](n6cc(NC(=O)c7coc(-c8ccnc(NCC(F)(F)F)c8)n7)c(C(F)F)n6)CC5)CC4)C3)cc2F)C(=O)N1", "value-units": "nM", "observed-value": 1}
{"test-smiles": "COC[C@H]1CN([C@H]2CC[C@H](n3cc4cc(NC(=O)c5ccc6cc(C#N)cnn56)c(C(C)(C)O)cc4n3)CC2)CCN1CC1CN(c2cc(F)c([C@H]3CCC(=O)NC3=O)c(F)c2)C1", "value-units": "nM", "observed-value": 0.7}
